Test system: 313798-341-R-J2-PDC spheroids, viability;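 note: spheroids exposed to compounds for seven days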
protocol: Anticancer human tumor 313798-341-R-J2-PDC patient-derived cervical squamous cell carcinoma cell line growth inhibition [PI3K]
settings: second compound 0.1 µM; first compound 0.316 µM; hits give low values; spheroids with HUVEC and MSC
Label T when viability, T/C is strictly below 80%; otherwise label F.

[[record]]
compound = "CC(C)NCC(C(=O)N1CCN(c2ncnc3c2C(C)CC3O)CC1)c1ccc(Cl)cc1 (stereo unspecified) + COc1c(OCCCN2CCOCC2)ccc2c3n(c(=NC(=O)c4cnc(N)nc4)nc12)CCN3"
class_assignment = "T"

[[record]]
compound = "Cn1ncc(Cl)c1-c1cc(C(=O)NC(CN)Cc2cccc(F)c2)sc1Cl (stereo unspecified) + CC(Nc1ccc2c(c1)OCCn1cc(N3C(=O)OCC3C(F)F)nc1-2)C(N)=O"
class_assignment = "T"

[[record]]
compound = "CCCS(=O)(=O)Nc1ccc(F)c(C(=O)c2c[nH]c3ncc(-c4ccc(Cl)cc4)cc23)c1F + Cc1nc(NC(=O)N2CCCC2C(N)=O)sc1-c1ccnc(C(C)(C)C(F)(F)F)c1"
class_assignment = "F"

[[record]]
compound = "C#Cc1c(F)ccc2cc(O)cc(-c3ncc4c(N5CC6CCC(C5)N6)nc(OCC56CCCN5CC(F)C6)nc4c3F)c12 (stereo unspecified) + COc1c(OCCCN2CCOCC2)ccc2c3n(c(=NC(=O)c4cnc(N)nc4)nc12)CCN3"
class_assignment = "T"

[[record]]
compound = "Cn1nccc1Nc1nccc(-c2ccn(C(CO)c3ccc(Cl)c(F)c3)c(=O)c2)n1 (stereo unspecified) + Cc1nc(NC(=O)N2CCCC2C(N)=O)sc1-c1ccnc(C(C)(C)C(F)(F)F)c1"
class_assignment = "F"

[[record]]
compound = "CCN1CCN(Cc2ccc(Nc3ncc(F)c(-c4cc(F)c5nc(C)n(C(C)C)c5c4)n3)nc2)CC1 + Cc1nc(NC(=O)N2CCCC2C(N)=O)sc1-c1ccnc(C(C)(C)C(F)(F)F)c1"
class_assignment = "F"

[[record]]
compound = "CC1(C)CCC(Nc2ncc(C(F)(F)F)c(-c3c[nH]c4c(P(C)(C)=O)c(C#N)ccc34)n2)CN1 (stereo unspecified) + CC(Nc1ncnc2nc[nH]c12)c1cc2cccc(Cl)c2c(=O)n1-c1ccccc1"
class_assignment = "T"

[[record]]
compound = "C=CC(=O)N1CCN(c2nc(=O)n(-c3c(C)ccnc3C(C)C)c3nc(-c4c(O)cccc4F)c(F)cc23)C(C)C1 (stereo unspecified) + COc1c(OCCCN2CCOCC2)ccc2c3n(c(=NC(=O)c4cnc(N)nc4)nc12)CCN3"
class_assignment = "T"

[[record]]
compound = "Cn1ncc(Cl)c1-c1cc(C(=O)NC(CN)Cc2cccc(F)c2)sc1Cl (stereo unspecified) + COc1c(OCCCN2CCOCC2)ccc2c3n(c(=NC(=O)c4cnc(N)nc4)nc12)CCN3"
class_assignment = "T"

[[record]]
compound = "CNC(=O)c1ccc(N2C(=S)N(c3ccc(C#N)c(C(F)(F)F)c3)C(=O)C2(C)C)cc1F + CC(Nc1ncnc2nc[nH]c12)c1cc2cccc(Cl)c2c(=O)n1-c1ccccc1"
class_assignment = "F"

[[record]]
compound = "C=CC(=O)N1CCN(c2nc(=O)n(-c3c(C)ccnc3C(C)C)c3nc(-c4c(O)cccc4F)c(F)cc23)C(C)C1 (stereo unspecified) + CC(Nc1ncnc2nc[nH]c12)c1cc2cccc(Cl)c2c(=O)n1-c1ccccc1"
class_assignment = "F"

[[record]]
compound = "CC1(C)CCC(Nc2ncc(C(F)(F)F)c(-c3c[nH]c4c(P(C)(C)=O)c(C#N)ccc34)n2)CN1 (stereo unspecified) + Cc1nc(NC(=O)N2CCCC2C(N)=O)sc1-c1ccnc(C(C)(C)C(F)(F)F)c1"
class_assignment = "T"

[[record]]
compound = "C=CC(=O)N1CCN(c2nc(=O)n(-c3c(C)ccnc3C(C)C)c3nc(-c4c(O)cccc4F)c(F)cc23)C(C)C1 (stereo unspecified) + Cc1nc(NC(=O)N2CCCC2C(N)=O)sc1-c1ccnc(C(C)(C)C(F)(F)F)c1"
class_assignment = "F"

[[record]]
compound = "CCCS(=O)(=O)Nc1ccc(F)c(C(=O)c2c[nH]c3ncc(-c4ccc(Cl)cc4)cc23)c1F + CC(Nc1ccc2c(c1)OCCn1cc(N3C(=O)OCC3C(F)F)nc1-2)C(N)=O"
class_assignment = "F"

[[record]]
compound = "CC1(C)CCC(Nc2ncc(C(F)(F)F)c(-c3c[nH]c4c(P(C)(C)=O)c(C#N)ccc34)n2)CN1 (stereo unspecified) + COc1c(OCCCN2CCOCC2)ccc2c3n(c(=NC(=O)c4cnc(N)nc4)nc12)CCN3"
class_assignment = "T"

[[record]]
compound = "CCCS(=O)(=O)Nc1ccc(F)c(C(=O)c2c[nH]c3ncc(-c4ccc(Cl)cc4)cc23)c1F + COc1c(OCCCN2CCOCC2)ccc2c3n(c(=NC(=O)c4cnc(N)nc4)nc12)CCN3"
class_assignment = "T"

[[record]]
compound = "CC(Cn1ccc(-c2ccc(C#N)c(Cl)c2)n1)NC(=O)c1cc(C(C)O)[nH]n1 (stereo unspecified) + Cc1nc(NC(=O)N2CCCC2C(N)=O)sc1-c1ccnc(C(C)(C)C(F)(F)F)c1"
class_assignment = "F"

[[record]]
compound = "Cn1nccc1Nc1nccc(-c2ccn(C(CO)c3ccc(Cl)c(F)c3)c(=O)c2)n1 (stereo unspecified) + COc1c(OCCCN2CCOCC2)ccc2c3n(c(=NC(=O)c4cnc(N)nc4)nc12)CCN3"
class_assignment = "T"

[[record]]
compound = "CNC(=O)c1ccc(N2C(=S)N(c3ccc(C#N)c(C(F)(F)F)c3)C(=O)C2(C)C)cc1F + Cc1nc(NC(=O)N2CCCC2C(N)=O)sc1-c1ccnc(C(C)(C)C(F)(F)F)c1"
class_assignment = "F"

[[record]]
compound = "CC1(C)CCC(CN2CCN(c3ccc(C(=O)NS(=O)(=O)c4ccc(NCC5CCOCC5)c([N+](=O)[O-])c4)c(Oc4cnc5[nH]ccc5c4)c3)CC2)=C(c2ccc(Cl)cc2)C1 + COc1c(OCCCN2CCOCC2)ccc2c3n(c(=NC(=O)c4cnc(N)nc4)nc12)CCN3"
class_assignment = "T"

[[record]]
compound = "Cn1nccc1Nc1nccc(-c2ccn(C(CO)c3ccc(Cl)c(F)c3)c(=O)c2)n1 (stereo unspecified) + CC(Nc1ncnc2nc[nH]c12)c1cc2cccc(Cl)c2c(=O)n1-c1ccccc1"
class_assignment = "F"


Data provenance: PubChem BioAssay AID1963982
